Sourced from ChEMBL document CHEMBL4041461

experiment: Antibacterial activity against Leptospira interrogans serovar Pomona after 2 hrs by micro dilution assay; format: functional
endpoint: MIC (µg/mL)
// return numeric value only (unit: µg/mL, not printed)

Task: Entry C[C@H]1c2cccc(O)c2C(=O)C2=C(O)[C@]3(O)C(=O)C(C(N)=O)=C(O)[C@@H](N(C)C)[C@@H]3[C@@H](O)[C@@H]21.O : reported MIC = ?
Output: 100

Task: Ok, now CC1(C)CC2=NOC(=O)C2=C(c2cccs2)O1
Output: 250

Task: Record: CC1=C2C(=O)ON=C2CC(C)(C)O1
Output: 250

Task: Proceed to CCC1=C2C(=O)ON=C2CC(C)(C)O1
Output: 250

Task: Follow-up item: COc1ccc(C2=C3C(=O)ON=C3CC(C)(C)O2)cc1
Output: 250

Task: Could you do the same for CC1(C)CC2=NOC(=O)C2=C(c2cccc3ccccc23)O1 , please?
Output: 500

Task: How about this compound: CC1(C)CC2=NOC(=O)C2=C(c2ccc(Cl)cc2)O1
Output: 250

----------
assay: Antibacterial activity against Leptospira interrogans serovar Icterohaemorrhagiae RGA after 2 hrs by micro dilution assay; assay type: functional
endpoint: MIC (µg/mL)
# output: bare number, implied unit µg/mL

Task: Form field: reported MIC of CC1=C2C(=O)ON=C2CC(C)(C)O1
Output: 125

Task: Record: C[C@H]1c2cccc(O)c2C(=O)C2=C(O)[C@]3(O)C(=O)C(C(N)=O)=C(O)[C@@H](N(C)C)[C@@H]3[C@@H](O)[C@@H]21.O
Output: 200

Task: What about this compound? CCC1=C2C(=O)ON=C2CC(C)(C)O1
Output: 250

Task: // repeat for CC1(C)CC2=NOC(=O)C2=C(c2cccc3ccccc23)O1 and report
Output: 250

Task: Next compound: COc1ccc(C2=C3C(=O)ON=C3CC(C)(C)O2)cc1
Output: 250

Task: Note, next up: CC1(C)CC2=NOC(=O)C2=C(c2cccs2)O1
Output: 250

Task: Item: CC1(C)CC2=NOC(=O)C2=C(c2ccc(Cl)cc2)O1
Output: 250

----------
Please provide measured MIC for the entries that follow.
assay: Antibacterial activity against Leptospira interrogans serovar Hebdomadis after 2 hrs by micro dilution assay; type: functional
I'd appreciate it if you included the unit after the number.

Task: Give its MIC value. Item: CC1(C)CC2=NOC(=O)C2=C(c2cccc3ccccc23)O1
Output: 250 µg/mL

Task: Do the same for CC1=C2C(=O)ON=C2CC(C)(C)O1 please
Output: 250 µg/mL

Task: Input C[C@H]1c2cccc(O)c2C(=O)C2=C(O)[C@]3(O)C(=O)C(C(N)=O)=C(O)[C@@H](N(C)C)[C@@H]3[C@@H](O)[C@@H]21.O
Output: 200 µg/mL

Task: And for CC1(C)CC2=NOC(=O)C2=C(c2ccc(Cl)cc2)O1 ?
Output: 250 µg/mL

Task: Query COc1ccc(C2=C3C(=O)ON=C3CC(C)(C)O2)cc1 next
Output: 250 µg/mL

Task: Note, next up: CCC1=C2C(=O)ON=C2CC(C)(C)O1
Output: 125 µg/mL

Task: Now this one: CC1(C)CC2=NOC(=O)C2=C(c2cccs2)O1
Output: 250 µg/mL

----------
Provide the reported MIC of each item.
experiment: Antibacterial activity against Leptospira interrogans serovar Bataviae Swart after 2 hrs by micro dilution assay; format: functional
// return numeric value only (unit: µg/mL, not printed)

Task: Can you share its MIC? I mean this molecule: CC1=C2C(=O)ON=C2CC(C)(C)O1
Output: 250

Task: Now try C[C@H]1c2cccc(O)c2C(=O)C2=C(O)[C@]3(O)C(=O)C(C(N)=O)=C(O)[C@@H](N(C)C)[C@@H]3[C@@H](O)[C@@H]21.O .
Output: 100

Task: Also CC1(C)CC2=NOC(=O)C2=C(c2cccc3ccccc23)O1 , if possible.
Output: 125

Task: Also need CCC1=C2C(=O)ON=C2CC(C)(C)O1 , thanks.
Output: 125

Task: Same read-out for CC1(C)CC2=NOC(=O)C2=C(c2ccc(Cl)cc2)O1 ?
Output: 250

Task: Same thing, different molecule: CC1(C)CC2=NOC(=O)C2=C(c2cccs2)O1
Output: 250

Task: Next: COc1ccc(C2=C3C(=O)ON=C3CC(C)(C)O2)cc1
Output: 250

----------
tested on: Leptospira interrogans serovar Autumnalis; assay: Antibacterial activity against Leptospira interrogans serovar Autumnalis N2 at 250 ug/mL after 2 hrs by micro dilution assay; assay type: functional
The source made the active and inactive calls. The rule behind the calls is not given here.
Valid outcomes are listed here; reply with one: active, inactive

Task: Please let me know the test result on file for CCC1=C2C(=O)ON=C2CC(C)(C)O1 .
Output: active

Task: Try this compound too: COc1ccc(C2=C3C(=O)ON=C3CC(C)(C)O2)cc1
Output: active

Task: Can you check CC1CC(=O)c2c(cc3ccccc3c2O)O1 (stereo not given) next?
Output: active

Task: Try COc1cc(OC)c2c(O)c3c(cc2c1)OC(C)C(C)C3=O (stereo not given) next.
Output: inactive

Task: Another compound: C[C@H]1c2cccc(O)c2C(=O)C2=C(O)[C@]3(O)C(=O)C(C(N)=O)=C(O)[C@@H](N(C)C)[C@@H]3[C@@H](O)[C@@H]21.O
Output: active

----------
test: Antibacterial activity against Leptospira interrogans serovar Canicola Hond Utrecht IV after 2 hrs by micro dilution assay; assay type: functional
endpoint: MIC (µg/mL)
The reply should be a number in µg/mL, with the unit left off.

Task: Name the reported MIC value associated with the compound CC1(C)CC2=NOC(=O)C2=C(c2cccs2)O1
Output: 62.5

Task: How about C[C@H]1c2cccc(O)c2C(=O)C2=C(O)[C@]3(O)C(=O)C(C(N)=O)=C(O)[C@@H](N(C)C)[C@@H]3[C@@H](O)[C@@H]21.O [DOXYCYCLINE] ?
Output: 200

Task: What do we get for CC1=C2C(=O)ON=C2CC(C)(C)O1 ?
Output: 250

Task: Do the same for CC1(C)CC2=NOC(=O)C2=C(c2ccc(Cl)cc2)O1 please
Output: 125
